# Target Desc: PDGFRalpha(V561D) (Homo sapiens, UniProt P16234, V561D)
# Construct: recombinant human PDGFRalpha, amino acids 550end containing the V561 D mutation; 6His (N)
# Sequence (P16234 550-1089 V561D): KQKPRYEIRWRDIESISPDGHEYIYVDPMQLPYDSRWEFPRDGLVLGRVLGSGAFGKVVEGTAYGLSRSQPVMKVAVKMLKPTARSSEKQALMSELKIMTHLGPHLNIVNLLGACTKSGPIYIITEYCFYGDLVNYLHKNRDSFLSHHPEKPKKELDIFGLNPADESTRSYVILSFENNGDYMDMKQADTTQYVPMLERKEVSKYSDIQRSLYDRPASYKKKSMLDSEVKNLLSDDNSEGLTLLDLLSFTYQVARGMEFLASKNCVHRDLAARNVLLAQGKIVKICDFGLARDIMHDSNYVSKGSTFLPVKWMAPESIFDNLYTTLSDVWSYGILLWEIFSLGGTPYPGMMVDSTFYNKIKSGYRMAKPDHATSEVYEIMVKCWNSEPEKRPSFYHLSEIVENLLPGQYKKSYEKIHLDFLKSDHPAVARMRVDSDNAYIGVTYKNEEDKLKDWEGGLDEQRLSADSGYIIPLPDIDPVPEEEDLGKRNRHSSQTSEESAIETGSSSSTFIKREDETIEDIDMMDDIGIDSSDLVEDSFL
# Protocol Description: PDGFRalpha(V561D) assay
# Measurement Context: recombinant human PDGFRalpha aa 550-end, 200 μM ATP, 1.4E-06 means 1.4×10^−6, read-out: Inhibition (IC50) of PDGFRα (V561D)
Listing: IC50 of selected compounds
Write the number in nM without appending the unit.

These recorded examples may help you get a feel for the data.
1. O=C(c1ccc(-n2cc(-c3cc4cc(F)ccc4[nH]c3=O)nn2)cc1)N1C[C@H](O)C[C@H]1CO: 140
2. CO[C@@H]1CCCN(C(=O)c2ccc(-n3cc(-c4cc5cc(F)c(F)cc5[nH]c4=O)nn3)cc2)C1: 200
3. CN1CCN(C(=O)c2ccc(-n3cc(-c4cc5ccc(F)cc5[nH]c4=O)nn3)cc2)CC1: 5
4. O=C(c1ccc(-n2cc(-c3cc4cc(Cl)ccc4[nH]c3=O)nn2)cc1)N1C[C@@H](O)CO1: 0.21
5. CCN(CC)CCNC(=O)c1ccc(-n2cc(-c3cc4cc(F)c(F)cc4[nH]c3=O)nn2)cc1: 76

Exam item: Please look up its IC50: "CN1CCN(C(=O)c2cccc(-n3cc(-c4cc5cc(F)ccc5[nH]c4=O)nn3)c2)CC1"
Marked response: 4

Exam item: So what does the record say about IC50 for "C=C(C)c1ccc(-n2cc(-c3cc4ccccc4[nH]c3=O)nn2)cc1" ?
Marked response: 44

---

# Target Desc: c-Kit(V654A) (Homo sapiens, UniProt P10721, V654A)
# Construct: amino acids 544-end containing the V654A mutation; GST (N)
# Sequence (P10721 544-976 V654A): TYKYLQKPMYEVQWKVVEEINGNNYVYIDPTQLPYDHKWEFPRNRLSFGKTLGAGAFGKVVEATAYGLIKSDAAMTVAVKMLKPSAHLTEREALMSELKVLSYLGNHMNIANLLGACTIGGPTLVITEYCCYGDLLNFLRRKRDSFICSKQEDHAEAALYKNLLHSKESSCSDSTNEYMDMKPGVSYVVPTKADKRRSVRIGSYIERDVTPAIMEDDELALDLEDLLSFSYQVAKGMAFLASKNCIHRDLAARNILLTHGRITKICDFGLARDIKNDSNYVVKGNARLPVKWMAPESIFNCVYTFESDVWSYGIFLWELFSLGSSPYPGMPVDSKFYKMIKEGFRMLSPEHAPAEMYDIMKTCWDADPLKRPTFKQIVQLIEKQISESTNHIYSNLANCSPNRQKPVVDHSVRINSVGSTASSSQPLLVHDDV
# Protocol Description: c-Kit(V654A) assay
# Measurement Context: recombinant human c-Kit aa 544-end, 200 μM ATP, 1.4E-06 means 1.4×10^−6, read-out: Inhibition (IC50) of c-KIT (V654A)
Value Type: IC50 (nM)
Record the value in nM, omitting the unit from your answer.

Examples with answers:
1) O=C(c1ccc(-n2cc(-c3cc4cc(F)ccc4[nH]c3=O)nn2)cc1)N1CCC(OCCN2CCCC2)C1 (centres unmarked): 70
2) O=C(c1ccc(-n2cc(-c3cc4cc(F)cnc4[nH]c3=O)nn2)cc1)N1CCOCC1: 99
3) O=c1[nH]c2ncc(F)cc2cc1-c1cn(-c2ccc(N3CCCNCC3)cc2)nn1: 66
4) COC[C@H]1CCN(C(=O)c2ccc(-n3cc(-c4cc5cc(F)ccc5[nH]c4=O)nn3)cc2)C1: 57
5) Cc1ccc2cc(-c3cn(-c4ccc(C(=O)N5CCN(C)CC5)cc4)nn3)c(=O)[nH]c2n1: 1200

Exam item: Item under review: "CN(C)C1CCN(C(=O)c2ccc(-n3cc(-c4cc5ccccc5[nH]c4=O)nn3)cc2)CC1" . Reported IC50?
Marked response: 29

Exam item: Can you share its IC50? I mean this compound: "CN(C)[C@H]1[C@@H]2CN(C(=O)c3ccc(-n4cc(-c5cc6cc(F)ccc6[nH]c5=O)nn4)cc3)C[C@@H]21"
Marked response: 48

Exam item: Query (compound): "O=C(c1ccc(-n2cc(-c3cc4cc(F)ccc4[nH]c3=O)nn2)cc1)N1CCNC[C@@H]1CO" ; field requested: IC50
Marked response: 120
